- Test system: RXF 393
- PROCEDURE SUMMARY: NCI tumour cell line growth inhibition, 48 h
Activity calls are given as the source filed them. Cut-off read from the data, not from the text of the source: active = GI50 up to about 1.1 µM and inactive = higher.
MEASUREMENT NAME: GI50

Solved entries:
Data point: COc1cc(OC)c(C(=O)c2cccs2)cc1N ; GI50 = > 100 µM (inactive)

Data point: COC(=O)[C@@H]1C[C@@H](O)CN1C(=O)c1ccc([N+](=O)[O-])cc1[N+](=O)[O-] ; GI50 = > 100 µM (inactive)

Data point: Cc1ccc(CNNC(=O)c2cc[n+]([BH2-]C#N)cc2)cc1 ; GI50 = > 100 µM (inactive)

Further cases:
Data point: CC(=O)CCC#Cc1ccccc1C(=O)C(C)=[N+]=[N-] ; GI50 = 23.6 µM (inactive)

Data point: CCN(CC)/[N+]([O-])=N/OCOC ; GI50 = > 100 µM (inactive)

Data point: Cc1ccccc1NC(=O)C(=O)CC(=O)c1ccc([N+](=O)[O-])cc1 ; GI50 = > 100 µM (inactive)

Data point: O=c1c2c3c(sc2nc2n1NC=NN2)CCCC3 ; GI50 = 25.2 µM (inactive)

Data point: CS/C(=N\c1ccccc1Cl)NC(=O)c1ccc(Br)cc1 ; GI50 = 31.3 µM (inactive)

Data point: CCC1(CC)C(=O)NC(=S)N=C1N ; GI50 = > 100 µM (inactive)

Data point: CN(NC(=O)c1ccco1)C1=NCCCCN1 ; GI50 = > 100 µM (inactive)

Data point: COc1ccc([C@@H]2OC(=O)C3C2C(=O)O[C@H]3c2ccc(OC)cc2)cc1 (stereo partly specified) ; GI50 = 76.4 µM (inactive)
